- target.of.assay: GDP-bound KRAS wild-type protein (Homo sapiens)
- experimental.details: Binding to KRAS by surface plasmon resonance (SPR), Single Cycle Kinetics
- condition.notes: SPR, Single Cycle Kinetics, GDP-bound KRAS wild-type protein; read-out: KRAS KD
pKd: −log10 of the molar value.
Lab note: anything with pKd at or over 9 counts as True; the rest go in False.

smiles.repr | target.of.assay | assigned.label
CC[C@H](C)[C@@H]1NC(=O)[C@H](CC(C)C)N(C)C(=O)CSC[C@H](C(=O)N(C)C)N(C)C(=O)[C@H](C2CCCC2)N(C)C(=O)C2(CCCC2)NC(=O)[C@@H]2CCCN2C(=O)[C@@H](CCc2cc(F)c(C(F)(F)F)c(F)c2)NC(=O)CN(C)C(=O)[C@H](Cc2ccc(C(F)(F)F)cc2)N2CC=CC[C@@H](C2=O)N(C)C(=O)CN(C)C1=O | GDP-bound KRAS wild-type protein (Homo sapiens) | False
CCC[C@@H]1C[C@H]2C(=O)NC3(CCC3)C(=O)N(C)[C@@H](C3CCCC3)C(=O)N(C)[C@H](C(=O)N(C)C)CC(=O)N(C)[C@@H](CC(C)C)C(=O)N[C@@H]([C@@H](C)CC)C(=O)N(C)CC(=O)N(C)[C@H]3C/C=C\CCN(C3=O)[C@@H](Cc3ccc(C)cc3)C(=O)N(C)CC(=O)N[C@@H](CCc3cc(F)c(C(F)(F)F)c(F)c3)C(=O)N2C1 | GDP-bound KRAS wild-type protein (Homo sapiens) | True
CCO[C@@H]1C[C@H]2C(=O)NC3(CCC3)C(=O)N(C)[C@@H](C3CCCC3)C(=O)N(CC)[C@H](C(=O)N3CCOCC3)CC(=O)N(C)[C@@H](CO)C(=O)N[C@@H]([C@@H](C)CC)C(=O)N(C)CC(=O)N(C)[C@H]3CCCCCN(C3=O)[C@@H](Cc3ccc(C(F)(F)F)cc3)C(=O)N(C)CC(=O)N[C@@H](CCc3cc(F)c(C(F)(F)F)c(F)c3)C(=O)N2C1 | GDP-bound KRAS wild-type protein (Homo sapiens) | False
CCO[C@@H]1C[C@H]2C(=O)NC3(CC(C)(C)C3)C(=O)N(C)[C@@H](C(CC)CC)C(=O)N(C)[C@H](C(=O)N(C)C)CC(=O)N(C)[C@@H](C(C)C)C(=O)N[C@@H]([C@@H](C)CC)C(=O)N(C)CC(=O)N(C)[C@H]3C/C=C\CCN(C3=O)[C@@H](CC3CCC(F)(F)CC3)C(=O)N(C)CC(=O)N[C@@H](CCc3ccc(C(F)(F)F)c(Cl)c3)C(=O)N2C1 | GDP-bound KRAS wild-type protein (Homo sapiens) | False
CCO[C@@H]1C[C@H]2C(=O)NC3(CCCC3)C(=O)N(C)[C@@H](C3CCCC3)C(=O)N(C)[C@H](C(=O)N3CCOCC3)CC(=O)N(C)[C@@H](CC(C)C)C(=O)N[C@@H]([C@@H](C)CC)C(=O)N(C)CC(=O)N(C)[C@H]3C[C@@H](C)CCN(C3=O)[C@@H](Cc3ccc(C(F)(F)F)cc3)C(=O)N(C)CC(=O)N[C@@H](CCc3cc(F)c(C(F)(F)F)c(F)c3)C(=O)N2C1 | GDP-bound KRAS wild-type protein (Homo sapiens) | True

* * *

- target.of.assay: GDP-bound KRAS wild-type protein (Homo sapiens, UniProt P01116)
- Sequence (P01116 whole entry): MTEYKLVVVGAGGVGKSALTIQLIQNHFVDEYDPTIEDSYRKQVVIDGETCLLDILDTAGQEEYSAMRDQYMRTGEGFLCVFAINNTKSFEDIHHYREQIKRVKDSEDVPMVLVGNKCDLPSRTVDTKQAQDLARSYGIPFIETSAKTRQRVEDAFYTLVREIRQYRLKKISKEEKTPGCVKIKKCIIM
- experimental.details: Binding to KRAS by surface plasmon resonance (SPR), Single Cycle Kinetics
- condition.notes: SPR, Single Cycle Kinetics, 1:1 binding model; GDP-bound KRAS wild-type protein; read-out: KRAS KD
Known Kd of a selection of molecules

smiles.repr | unit.string | Kd
CCO[C@@H]1C[C@H]2C(=O)NC3(CCC3)C(=O)N(C)[C@@H](C3CCCC3)C(=O)N(C)[C@H](C(=O)N(C)CCOC)CC(=O)N(C)[C@@H](CC(C)C)C(=O)N[C@@H]([C@@H](C)CC)C(=O)N(C)CC(=O)N(C)[C@H]3C/C=C\CCN(C3=O)[C@@H](Cc3ccc(C(F)(F)F)cc3)C(=O)N(C)CC(=O)N[C@@H](CCc3ccc(C(F)(F)F)c(OC)c3)C(=O)N2C1 | nM | 0.093
CCO[C@@H]1C[C@H]2C(=O)NC3(CCC3)C(=O)N(C)[C@@H](C3CCCC3)C(=O)N(C)[C@H](C(=O)N(C)C)CC(=O)N(C)[C@@H](CC(C)C)C(=O)N[C@@H]([C@@H](C)CC)C(=O)N(C)CC(=O)N(C)[C@H]3C/C=C\CCN(C3=O)[C@@H](Cc3ccc(F)cc3)C(=O)N(C)CC(=O)N[C@@H](CCc3ccc(Cl)c(Cl)c3)C(=O)N2C1 | nM | 0.45
